Please provide measured HDL for the entries that follow.
# Test system: STZ induced diabetic nephropathy in rats
# METHOD: Study 4: HCQ and its combination with Losartan, Telmisartan, Azilsartan and Ramipril, with Glimepiride control
# Type: in vivo, Wistar rats
# ASSAY CONDITIONS: after 8th week; dose mg/kg: HCQ 45, LT 11, RM 0.6, TL 9.5, AZ 4.5, alone or combined with HCQ 45
Use mg/dL as the unit, but write only the number.

Data request: # query: HDL of entry CCCc1nc2c(C)cc(-c3nc4ccccc4n3C)cc2n1Cc1ccc(-c2ccccc2C(=O)O)cc1
Data returned: 26.83

Data request: # query: HDL of entry CCOc1nc2cccc(C(=O)O)c2n1Cc1ccc(-c2ccccc2-c2nc(=O)o[nH]2)cc1
Data returned: 26.67

Data request: # query: HDL of entry CCOC(=O)[C@H](CCc1ccccc1)N[C@@H](C)C(=O)N1[C@H](C(=O)O)C[C@@H]2CCC[C@@H]21
Data returned: 27.33

Data request: # query: HDL of entry CCN(CCO)CCCC(C)Nc1ccnc2cc(Cl)ccc12 (centres unmarked) [Hydroxychloroquine]
Data returned: 29

Data request: # query: HDL of entry CCCCc1nc(Cl)c(CO)n1Cc1ccc(-c2ccccc2-c2nn[nH]n2)cc1
Data returned: 28.5

---

# System: STZ induced diabetic nephropathy in rats
# METHOD: Study 4: HCQ and its combination with Losartan, Telmisartan, Azilsartan and Ramipril, with Glimepiride control
# Format: in vivo, Wistar rats
# ASSAY CONDITIONS: after 8th week; dose mg/kg: HCQ 35, LT 5.5, RM 0.3, TL 4.5, AZ 2.5, alone or combined with HCQ 35
EXPERIMENTAL READOUT: TC (mg/dL)
Use mg/dL as the unit, but write only the number.

Data request: # query: TC of entry CCCCc1nc(Cl)c(CO)n1Cc1ccc(-c2ccccc2-c2nn[nH]n2)cc1
Data returned: 143.5

Data request: # query: TC of entry CCCc1nc2c(C)cc(-c3nc4ccccc4n3C)cc2n1Cc1ccc(-c2ccccc2C(=O)O)cc1
Data returned: 138.67

Data request: # query: TC of entry CCN(CCO)CCCC(C)Nc1ccnc2cc(Cl)ccc12 (centres unmarked) [Hydroxychloroquine]
Data returned: 133.5

Data request: # query: TC of entry CCOc1nc2cccc(C(=O)O)c2n1Cc1ccc(-c2ccccc2-c2nc(=O)o[nH]2)cc1
Data returned: 142

Data request: # query: TC of entry CCOC(=O)[C@H](CCc1ccccc1)N[C@@H](C)C(=O)N1[C@H](C(=O)O)C[C@@H]2CCC[C@@H]21
Data returned: 138.33

---

Please provide measured HDL for the entries that follow.
# Test system: STZ induced diabetic nephropathy in rats
# METHOD: Study 4: HCQ and its combination with Losartan, Telmisartan, Azilsartan and Ramipril, with Glimepiride control
# Format: in vivo, Wistar rats
# ASSAY CONDITIONS: after 8th week; dose mg/kg: HCQ 35, LT 5.5, RM 0.3, TL 4.5, AZ 2.5, alone or combined with HCQ 35
Use mg/dL as the unit, but write only the number.

Data request: # query: HDL of entry CCN(CCO)CCCC(C)Nc1ccnc2cc(Cl)ccc12 (centres unmarked) [Hydroxychloroquine]
Data returned: 29.5

Data request: # query: HDL of entry CCOC(=O)[C@H](CCc1ccccc1)N[C@@H](C)C(=O)N1[C@H](C(=O)O)C[C@@H]2CCC[C@@H]21 [Ramipril]
Data returned: 27.17

Data request: # query: HDL of entry CCOc1nc2cccc(C(=O)O)c2n1Cc1ccc(-c2ccccc2-c2nc(=O)o[nH]2)cc1 [Azilsartan]
Data returned: 27.17

Data request: # query: HDL of entry CCCCc1nc(Cl)c(CO)n1Cc1ccc(-c2ccccc2-c2nn[nH]n2)cc1 [Losartan]
Data returned: 27.5

Data request: # query: HDL of entry CCCc1nc2c(C)cc(-c3nc4ccccc4n3C)cc2n1Cc1ccc(-c2ccccc2C(=O)O)cc1 [Telmisartan]
Data returned: 26

---

# Tested on: STZ induced diabetic nephropathy in rats
# METHOD: Study 4: HCQ and its combination with Losartan, Telmisartan, Azilsartan and Ramipril, with Glimepiride control
# Assay type: in vivo, Wistar rats
# ASSAY CONDITIONS: blood, Day1; dose mg/kg: HCQ 45, LT 11, RM 0.6, TL 9.5, AZ 4.5, alone or combined with HCQ 45
Please provide measured Glucose Day1 for the entries that follow.
Use mg/dL as the unit, but write only the number.

Data request: # query: Glucose Day1 of entry CCOC(=O)[C@H](CCc1ccccc1)N[C@@H](C)C(=O)N1[C@H](C(=O)O)C[C@@H]2CCC[C@@H]21
Data returned: 260

Data request: # query: Glucose Day1 of entry CCCc1nc2c(C)cc(-c3nc4ccccc4n3C)cc2n1Cc1ccc(-c2ccccc2C(=O)O)cc1
Data returned: 275.33

Data request: # query: Glucose Day1 of entry CCOc1nc2cccc(C(=O)O)c2n1Cc1ccc(-c2ccccc2-c2nc(=O)o[nH]2)cc1
Data returned: 278.5

Data request: # query: Glucose Day1 of entry CCN(CCO)CCCC(C)Nc1ccnc2cc(Cl)ccc12 (centres unmarked) [Hydroxychloroquine]
Data returned: 277.5

Data request: # query: Glucose Day1 of entry CCCCc1nc(Cl)c(CO)n1Cc1ccc(-c2ccccc2-c2nn[nH]n2)cc1
Data returned: 268.67

---

# System: STZ induced diabetic nephropathy in rats
# METHOD: Study 4: HCQ and its combination with Losartan, Telmisartan, Azilsartan and Ramipril, with Glimepiride control
# Assay type: in vivo, Wistar rats
# ASSAY CONDITIONS: serum, after 8th week; dose mg/kg: HCQ 35, LT 5.5, RM 0.3, TL 4.5, AZ 2.5, alone or combined with HCQ 35
EXPERIMENTAL READOUT: Total protein (g/dL)
Use g/dL as the unit, but write only the number.

Data request: # query: Total protein of entry CCN(CCO)CCCC(C)Nc1ccnc2cc(Cl)ccc12 (centres unmarked) [Hydroxychloroquine]
Data returned: 4.52

Data request: # query: Total protein of entry CCOc1nc2cccc(C(=O)O)c2n1Cc1ccc(-c2ccccc2-c2nc(=O)o[nH]2)cc1
Data returned: 4.76

Data request: # query: Total protein of entry CCCc1nc2c(C)cc(-c3nc4ccccc4n3C)cc2n1Cc1ccc(-c2ccccc2C(=O)O)cc1
Data returned: 4.93

Data request: # query: Total protein of entry CCCCc1nc(Cl)c(CO)n1Cc1ccc(-c2ccccc2-c2nn[nH]n2)cc1
Data returned: 4.91

Data request: # query: Total protein of entry CCOC(=O)[C@H](CCc1ccccc1)N[C@@H](C)C(=O)N1[C@H](C(=O)O)C[C@@H]2CCC[C@@H]21
Data returned: 4.76
